# Tested on: 786-0
# experimentNotes: NCI tumour cell line growth inhibition, 48 h
Calls of active or inactive are those of the source. Rule as the data show it: active = GI50 up to about 1.1 µM and inactive = higher.
Valid outcomes are listed here; reply with one: class 1 (active), class 0 (inactive)

Status in this test for `CCCCCCNCCCNc1c2cc(OC)ccc2nc2cccc([N+](=O)[O-])c12` ?
class 1

// param item: `CC(=O)C(=[N+]=[N-])C(=O)OC(C)(C)C#N` ; yields the recorded call
class 0

Please share the test call associated with `O=c1c2ccccc2nc(N/N=C/c2ccccc2O)n1-c1ccccc1` .
class 0

Dear all, I need the recorded test outcome for `COc1ccc2cc(NC(=O)Nn3cnnc3)ccc2c1` , thank you.
class 0

What did this assay record as the result for `COc1ccc(N2C(=O)c3cccnc3S2(=O)=O)cc1` ?
class 0

Returns: the outcome recorded for `COc1cc(/C=C2\N=C(c3ccccc3)N(c3nc4c(OC)ccc(OC)c4s3)C2=O)cc(OC)c1OC` in this assay.
class 0

Query: recorded result category for CCOc1ccc(/N=N/C2C(=O)N(C(=O)CC(=O)Nc3ccc(C)cc3)N=C2C)cc1 (centres undefined) in this test
class 0

I'd appreciate the recorded outcome for CC(=O)O[C@H]1CC2C(C3CCC(C(C)CCC(=O)O)[C@]31C)[C@H](OC(C)=O)C[C@@H]1CC3(CC[C@]21C)OOC1(CC[C@]2(C)C4C[C@H](OC(C)=O)[C@]5(C)C(C(C)CCC(=O)O)CCC5C4[C@H](OC(C)=O)C[C@@H]2C1)OO3 (some centres undefined) from this test.
class 0

Status in this test for C=C(CN(C)C)C(=O)c1ccc(OC2OC(COC(C)=O)C(OC(C)=O)C(OC(C)=O)C2OC(C)=O)cc1 (centres undefined) ?
class 0

====

# System: SK-MEL-28
# experimentNotes: NCI tumour cell line growth inhibition, 48 h
The source made the active and inactive calls. Rule as the data show it: active = GI50 up to about 1.1 µM and inactive = higher.
Provide the recorded GI50 for the entries that follow.

Report GI50, nothing else, for this compound: `CNC(=O)OCc1cc2ccncc2c2c1[nH]c1ccccc12`
> 100 µM (inactive)

Report GI50 for `C/C=N\n1c(C)n[nH]c1=O`
> 100 µM (inactive)

Name the recorded GI50 of the item `CC1(C)CC[C@]2(C(=O)O)CC[C@]3(C)C(=CC[C@@H]4[C@@]5(C)CC[C@@H]6OC(C)(C)OC[C@@]6(C)[C@@H]5CC[C@]43C)[C@H]2C1` in your answer.
14.4 µM (inactive)

Fill in reported GI50 for this entry: O=C1C(Cl)N(c2ccccc2Cl)C1c1c[nH]c2ccccc12 (stereo unspecified)
> 100 µM (inactive)

Input `O=C(Nc1ccc(Cl)cc1)c1cc([N+](=O)[O-])ccc1O` , output reported GI50.
3.33 µM (inactive)

Return reported GI50. Input compound: `COc1ccc(C(c2c(O)c3ccccc3n(C)c2=O)c2c(O)c3ccccc3n(C)c2=O)cc1`
39.2 µM (inactive)

====

# Tested on: OVCAR-8
# experimentNotes: NCI tumour cell line growth inhibition, 48 h
The source made the active and inactive calls. Rule as the data show it: active = GI50 up to about 1.1 µM and inactive = higher.
Reply using exactly one outcome from class 1 (active), class 0 (inactive)

Call for entry CC(C)=CC(O)C/C(C)=C/CC/C(C)=C/CCC1(C)C(CCCO)/C(=C(/C)C=O)CCC1(C)O (stereo not given) :
class 0

Outcome? CCOC(=O)C12C(=O)CCN1CCc1ccccc1C2C (stereo not given)
class 0

Hey, what did the test say about `Cn1c(=O)c2nc(N3CCCCC3)cnc2n(C)c1=O` ?
class 0

Called result for COC(=O)[C@@]12CN(C)[C@@H](C(C)(C)C)N1C(=O)OC2c1ccccc1 (stereo not given in full)
class 0

How did this test come out for COC1/C=C\C=C(/C)C(=O)NC2=CC(=O)C(N)=C(CC(C)CC(OC)C(O)C(C)C=C(C)C1OC(N)=O)C2=O (stereo not given) ?
class 1

What call does the record list for [O-][S+]1[C@H](c2ccccc2)c2c(-c3ccccc3)sc(-c3ccccc3)c2[C@@H]1c1ccccc1 (stereo not given in full) ?
class 0

How was `c1ccc(C[N+]23CN4CN(CN(C4)C2)C3)cc1` classified in this test?
class 0

Hello, I am checking results. What call was entered for COc1cc(C2SC(=N)Nc3c2c(C)nn3C(=O)Cc2ccccc2)ccc1O (stereo not given) ?
class 0

Entry `COc1cc(/C=C2\N=C(c3ccccc3)N(c3nc4c(OC)ccc(OC)c4s3)C2=O)cc(OC)c1OC` : call = ?
class 0

Call for entry `O=c1c2ccccc2n2cnc3ccc(NCCNCCO)c1c32` :
class 1

I would be grateful if you could indicate the recorded call for `CNC(=O)OCc1cc2ccncc2c2c1[nH]c1ccccc12` .
class 0

Which outcome was entered for the compound Cc1cn(Cc2cn(CC3OC(n4cc(C)c(=O)[nH]c4=O)CC3O)nn2)c(=O)[nH]c1=O (stereo not given) in this test?
class 0

Write down the call the test reported for this compound. Item: `COC[C@@H](/N=C/c1ccc([N+](=O)[O-])cc1)C(C)C`
class 0

Could you please tell me the result logged for CC(=O)NC1C(O)C(O)C(CO)OC1n1nc(SCc2ccccc2)c(=O)[nH]c1=O (stereo not given) in this assay?
class 0

Kindly provide the recorded test outcome for the following compound: `Nc1ccc([C@H]2C(=O)N[C@H]3CCC[C@H]32)cc1`
class 0

Per the assay record, what outcome was assigned to O=C1C2=Nc3ccccc3C(O)N2c2ccccc21 (stereo not given) ?
class 0

Recorded call for `N=C(N)N/N=C/c1nc2sccn2c1[N+](=O)[O-]` ?
class 0

Dear all, I need the recorded test outcome for `N#Cc1c(-c2ccccc2)c(/N=N/c2ccc(Cl)cc2)c(=O)n2c1[nH]c1ccccc12` , thank you.
class 0

Tell me the recorded outcome of this test for COc1ccc(-c2oc3c(OC)c(OC)c(OC)c(OC)c3c(=O)c2OC)cc1OC [3,5,6,7,8,3',4'-HEPTAMETHOXYFLAVONE] .
class 0

Would you mind telling me which call this test gave `COc1cc(S(=O)(=O)Nc2ccc(-c3csc(/N=C\c4cccs4)n3)cc2)ccc1Cl` ?
class 0
